Target: FAAH (Rattus norvegicus, UniProt P97612)
Construct: Preparation of Rat Brain Membranes Preparations (FAAH Enzyme Solution); from tissue; host or cells: rat cerebrum (brain membrane preparation)
Sequence (P97612 1-579): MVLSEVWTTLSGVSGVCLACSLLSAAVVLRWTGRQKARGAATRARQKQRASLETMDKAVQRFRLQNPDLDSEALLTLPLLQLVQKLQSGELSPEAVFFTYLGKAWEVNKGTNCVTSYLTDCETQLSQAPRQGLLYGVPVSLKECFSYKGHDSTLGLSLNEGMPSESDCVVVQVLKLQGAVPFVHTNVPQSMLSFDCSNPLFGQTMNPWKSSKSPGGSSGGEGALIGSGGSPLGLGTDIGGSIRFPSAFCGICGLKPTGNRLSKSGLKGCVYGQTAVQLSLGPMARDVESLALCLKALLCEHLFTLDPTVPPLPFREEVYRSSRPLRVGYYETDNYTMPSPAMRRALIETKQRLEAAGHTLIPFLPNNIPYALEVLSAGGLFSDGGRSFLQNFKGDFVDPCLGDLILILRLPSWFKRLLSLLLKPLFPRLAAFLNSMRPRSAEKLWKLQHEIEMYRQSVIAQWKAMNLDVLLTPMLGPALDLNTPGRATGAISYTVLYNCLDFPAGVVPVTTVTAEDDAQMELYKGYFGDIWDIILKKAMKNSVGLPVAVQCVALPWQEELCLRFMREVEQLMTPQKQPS
Assay: Determination of FAAH inhibitory activity in rat (rat brain membrane preparations, [3H]-anandamide hydrolysis)
Type: biochemical
Conditions: rat brain membrane preparations; 100 nM test substance; read-out: FAAH Inhibition, Inhibition Rate at 100 nM
Method: Determination of FAAH Inhibitory Activity in Rat The preparation of rat brain membranes preparations and the determination of FAAH inhibitory activity were carried out according to the Jonsson et al. method [Br. J. Pharmacol., 133, 1263 (2001)]. (1) Preparation of Rat Brain Membranes Preparations (FAAH Enzyme Solution) The cerebrum was extracted from rats and was freeze-stored at −80° C. […]
Reported endpoint: inhibition at 0.1 µM (%)

Example entries and their recorded answers appear below.
# Record smiles, inhibition at 0.1 µM, %
records = [
    ("COCc1ncc2c(n1)n(C)c(=O)n2C(=O)N1CC(c2cccc(OC(F)(F)F)c2)C1", 84),
    ("CN(C)C(=O)n1c(=O)n(C)c2cnc(-c3ccc(Cl)cc3)nc21", 95),
]

I = Cn1c(=O)n(C(=O)N2CCCC2)c2cnc(-c3ccc(F)c(F)c3)nc21
II = Cn1c(=O)n(C(=O)N2CCC2)c2cnc(COc3ccccc3Cl)nc21
Ask | Response body: label of entry with the larger inhibition at 0.1 µM; valid values I , II . State the label of the item chosen.
Reply | I
(I: 100%, II: 63%)

---

molecular target: FAAH (Rattus norvegicus, UniProt P97612); construct: Preparation of Rat Brain Membranes Preparations (FAAH Enzyme Solution); from tissue; host or cells: rat cerebrum (brain membrane preparation); assay: Determination of FAAH inhibitory activity in rat (rat brain membrane preparations, [3H]-anandamide hydrolysis); type: biochemical; conditions: rat brain membrane preparations; test substance 0.1 nM to 1 μM; read-out: FAAH Inhibition IC50
pIC50: −log10 of the molar value.
Reported endpoint: pIC50

# Molecule, Reported endpoint, Result number
records = [
    ("Cn1c(=O)n(C(=O)N2CCCC2)c2nc(Cc3c(F)cccc3F)ncc21 [Example 298]", "pIC50", 7.32),
    ("COc1ccc(CCC2CCN(C(=O)n3c(=O)n(C)c4nc(-c5cccc(OC)c5)ncc43)CC2)cc1 [Example 118]", "pIC50", 8.30),
    ("COCc1ncc2c(n1)n(C)c(=O)n2C(=O)N1CC(c2ccccc2)C1 [Example 438]", "pIC50", 7.47),
    ("COc1cccc(-c2ncc3c(n2)n(C)c(=O)n3C(=O)N(C)CCc2ccc(Cl)c(Cl)c2)c1 [Example 105]", "pIC50", 9.00),
]

P = Cc1cccc(CCc2ncc3c(n2)n(C(=O)N(C)C)c(=O)n3C)c1 [compound 498]
Q = Cc1cccc(OCc2ncc3c(n2)n(C)c(=O)n3C(=O)N2CCC2)c1 [compound 411]
R = COc1cccc(CN(C)C(=O)n2c(=O)n(C)c3nc(-c4cccc(OC)c4)ncc32)c1 [Example 73]
S = COC[C@H]1CCCN1C(=O)n1c(=O)n(C)c2nc(-c3ccccc3)ncc21 [Example 29]
T = Cn1c(=O)n(C(=O)N2CCC2)c2nc(COc3ccc(Cl)cc3)ncc21 [Example 428]
Ask | Hi! Can you put these in order of pIC50, lowest number first? Please respond by ranking the labels in the order requested.
Reply | Q, S, R, P, T

---

target: FAAH (Rattus norvegicus); construct: Preparation of Rat Brain Membranes Preparations (FAAH Enzyme Solution); from tissue; host or cells: rat cerebrum (brain membrane preparation); assay: Determination of FAAH inhibitory activity in rat (rat brain membrane preparations, [3H]-anandamide hydrolysis); type: biochemical; settings: rat brain membrane preparations; 100 nM test substance; read-out: FAAH Inhibition, Inhibition Rate at 100 nM
Reported endpoint: inhibition at 0.1 µM (%)

# Record smiles, inhibition at 0.1 µM [%]
data = [
    ("Cn1c(=O)n(C(=O)N2CCN(c3ccccc3Cl)CC2)c2cnc(-c3ccccc3)nc21", 94),
    ("CCOCc1ncc2c(n1)n(C)c(=O)n2C(=O)N1CC(c2ccccc2F)C1", 96),
    ("COc1cccc(-c2ncc3c(n2)n(C)c(=O)n3C(=O)N(C)CCc2ccc(Cl)cc2Cl)c1", 103),
    ("Cn1c(=O)n(C(=O)N2CCC2)c2nc(COc3ccccc3OC(F)(F)F)ncc21", 94),
    ("CCCCc1ccc(CCc2ncc3c(n2)n(C(=O)N(C)C)c(=O)n3C)cc1", 100),
    ("CCCN(C)C(=O)n1c(=O)n(C)c2nc(-c3cccc(OC)c3)ncc21", 101),
    ("Cn1c(=O)n(C(=O)N2CCN(c3ccc(C#N)cc3)CC2)c2cnc(-c3ccccc3)nc21", 99),
    ("CCN(C)C(=O)n1c(=O)n(C)c2nc(Cc3ccc(C)cc3)ncc21", 98),
    ("Cn1c(=O)n(C(=O)N2CCCC2)c2nc(/C=C/c3cccc(F)c3)ncc21", 98),
    ("CCN(C)C(=O)n1c(=O)n(C)c2cnc(-c3cccc(Cl)c3)nc21", 76),
    ("Cn1c(=O)n(C(=O)N2CCC2)c2nc(CCCOc3ccc(F)cc3)ncc21", 99),
    ("COc1ccc(Cc2ncc3c(n2)n(C)c(=O)n3C(=O)N2CCCC2)cc1", 99),
]

---

Target: FAAH (Rattus norvegicus)
Construct: Preparation of Rat Brain Membranes Preparations (FAAH Enzyme Solution); from tissue; host or cells: rat cerebrum (brain membrane preparation)
Sequence (P97612 1-579): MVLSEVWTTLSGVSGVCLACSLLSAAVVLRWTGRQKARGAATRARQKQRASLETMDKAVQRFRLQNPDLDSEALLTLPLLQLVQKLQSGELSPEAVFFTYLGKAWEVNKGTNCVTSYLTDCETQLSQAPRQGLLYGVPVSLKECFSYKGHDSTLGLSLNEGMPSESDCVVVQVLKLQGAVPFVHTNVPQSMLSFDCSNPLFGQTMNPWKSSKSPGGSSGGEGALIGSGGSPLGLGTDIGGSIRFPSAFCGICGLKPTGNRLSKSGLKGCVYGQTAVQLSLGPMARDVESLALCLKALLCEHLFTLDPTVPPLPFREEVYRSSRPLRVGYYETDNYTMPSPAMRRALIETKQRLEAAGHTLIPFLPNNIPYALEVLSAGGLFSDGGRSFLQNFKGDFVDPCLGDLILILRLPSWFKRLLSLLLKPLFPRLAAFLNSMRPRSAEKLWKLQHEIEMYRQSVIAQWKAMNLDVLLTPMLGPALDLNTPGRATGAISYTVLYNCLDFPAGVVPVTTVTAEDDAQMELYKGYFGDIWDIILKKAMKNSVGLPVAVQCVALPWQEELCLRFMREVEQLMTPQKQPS
Experiment: Determination of FAAH inhibitory activity in rat (rat brain membrane preparations, [3H]-anandamide hydrolysis)
Format: biochemical
Settings: rat brain membrane preparations; test substance 0.1 nM to 1 μM; read-out: FAAH Inhibition IC50
Procedure: Determination of FAAH Inhibitory Activity in Rat The preparation of rat brain membranes preparations and the determination of FAAH inhibitory activity were carried out according to the Jonsson et al. method [Br. J. Pharmacol., 133, 1263 (2001)]. (1) Preparation of Rat Brain Membranes Preparations (FAAH Enzyme Solution) The cerebrum was extracted from rats and was freeze-stored at −80° C. […]
Reported endpoint: IC50 (µM)

Examples with their reported IC50 follow.
# Record smiles, Unit string, IC50
rows = [
    ("COc1cccc(-c2ncc3c(n2)n(C)c(=O)n3C(=O)N2CCC(=Cc3ccc(Cl)cc3)CC2)c1", "µM", 0.005),
    ("COCc1ncc2c(n1)n(C)c(=O)n2C(=O)N1CC(c2ccc(OCc3ccccc3)cc2)C1", "µM", 0.001),
    ("Cn1c(=O)n(C(=O)N2CCCC2)c2cnc(-c3ccc(C(F)(F)F)cc3)nc21", "µM", 0.042),
    ("Cn1c(=O)n(C(=O)N2CCC2)c2nc(CCc3cccc(C(F)F)c3)ncc21", "µM", 0.021),
    ("Cc1ccc(Cc2ncc3c(n2)n(C(=O)N2CCCC2)c(=O)n3C)cc1", "µM", 0.015),
    ("Cn1c(=O)n(C(=O)N2CCCC2)c2cnc(-c3ccc(F)nc3)nc21", "µM", 0.006),
]

P = COc1cccc(-c2ncc3c(n2)n(C)c(=O)n3C(=O)N2CCC(COc3ccccc3)CC2)c1
Q = COCc1ncc2c(n1)n(C)c(=O)n2C(=O)N1CC(c2cccc(C)c2)C1
Ask | Between item P and item Q , which reported IC50 is smaller? In your reply, give the label of the chosen option.
Reply | P
(P: 0.007 µM, Q: 0.062 µM)

1 = Cc1ccc(N2CCN(C(=O)n3c(=O)n(C)c4nc(-c5ccccc5)ncc43)CC2)nc1
2 = Cn1c(=O)n(C(=O)N2CCN(c3ccccc3Cl)CC2)c2cnc(-c3ccccc3)nc21
3 = Cn1c(=O)n(C(=O)N2CCC2)c2cnc(Cc3ccccc3F)nc21
4 = CN(C)C(=O)n1c(=O)n(C)c2cnc(CCc3c(F)cccc3F)nc21
5 = CN(C)C(=O)n1c(=O)n(C)c2cnc(CCc3cccc(C(F)F)c3)nc21
Ask | Falling order of IC50, please. Put the labels in the order asked and list them.
Reply | 5, 4, 2, 3, 1
(5: 0.153 µM, 4: 0.104 µM, 2: 0.05 µM, 3: 0.012 µM, 1: 0.007 µM)

A = CCOc1ccc(C2CN(C(=O)n3c(=O)n(C)c4nc(CCCOC)ncc43)C2)cc1
B = CCN(C)C(=O)n1c(=O)n(C)c2nc(-c3cccnc3)ncc21
Ask | Between the two listed entries A and B , which has its IC50 at the higher number? Kindly give the label for the entry you pick.
Reply | B
